Assay: Pharmacokinetics after a single SC or PO dose
Type: in vivo, mouse
Conditions: C57BL/6NCRL, mouse, brain/plasma; sc 4.22 mg eq./kg; 1 hr; mean (standard deviation), N = 3; read-out: B:P
measurement-kind: Kp at 1 hr
# output: bare number, no unit

Q: What value of Kp at 1 hr has been reported for the following compound? Nc1ccccc1NC(=O)CCCCCC(=O)Nc1ccccc1 [Compound 4b]
Result: 0.06

----------
Assay: Pharmacokinetics after a single SC or PO dose
Assay type: in vivo, mouse
Settings: C57BL/6NCRL, mouse, plasma, po, 50 mg/kg, mice; po 50 mg eq/kg; read-out: plasma Cmax
measurement-kind: Cmax (µM)
Quick note: give the figure in µM, leave out the unit.

Q: What value of Cmax has been reported for the following compound? Nc1ccccc1NC(=O)CCCCCC(=O)Nc1ccccc1
Result: 1.3
